Below, each entry is listed alongside its reported Ki.
Target: human H3 receptor (Homo sapiens)
Sequence (Q9Y5N1 whole entry): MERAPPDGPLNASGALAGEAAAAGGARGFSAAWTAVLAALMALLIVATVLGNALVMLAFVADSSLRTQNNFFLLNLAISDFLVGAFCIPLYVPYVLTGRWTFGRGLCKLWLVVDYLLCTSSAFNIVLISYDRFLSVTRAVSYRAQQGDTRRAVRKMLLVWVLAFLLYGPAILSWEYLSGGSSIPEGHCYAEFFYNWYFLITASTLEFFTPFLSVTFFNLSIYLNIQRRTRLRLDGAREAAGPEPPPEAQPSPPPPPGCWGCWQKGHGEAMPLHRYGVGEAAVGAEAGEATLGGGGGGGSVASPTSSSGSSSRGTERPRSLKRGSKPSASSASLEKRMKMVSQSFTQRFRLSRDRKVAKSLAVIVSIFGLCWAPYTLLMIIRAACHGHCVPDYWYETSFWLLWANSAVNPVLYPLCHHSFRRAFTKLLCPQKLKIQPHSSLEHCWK
Assay: H3 Receptor Binding (Human) Method 2, [125I]-iodoproxyfan competitive radioligand binding
Parameters: expressed in transfected cells
Measurement Name: Ki

molecule="O=C([C@H]1C[C@H](Oc2ccccc2)CN1)N1CCCN(C2CCC2)CC1 [Example 67]" value_reported="5 nM"
molecule="CC(=O)N1C[C@@H](Oc2cccc(F)c2)C[C@H]1C(=O)N1CCCN(C2CCC2)CC1 [Example 115]" value_reported="21 nM"
molecule="CC(=O)N1C[C@H](Oc2cccc(F)c2)C[C@H]1C(=O)N1CCCN(C2CCC2)CC1 [Example 129]" value_reported="379 nM"
molecule="Cc1cc(O[C@@H]2CN[C@@H](C(=O)N3CCCN(C4CCC4)CC3)C2)ccc1Cl [Example 72]" value_reported="3 nM"
